Cited source: patent US20250042994A1

Below, each entry is listed with its recorded OD450 at 0.0001 nM.
- target-desc: T1, human CD19 exon1-3-His tag protein (human, UniProt P15391 20-186, limits assumed)
- T1 construct: membrane-distal part of the extracellular region, made in HEK293E cells; not shown: His tag
- T1 sequence (looked up): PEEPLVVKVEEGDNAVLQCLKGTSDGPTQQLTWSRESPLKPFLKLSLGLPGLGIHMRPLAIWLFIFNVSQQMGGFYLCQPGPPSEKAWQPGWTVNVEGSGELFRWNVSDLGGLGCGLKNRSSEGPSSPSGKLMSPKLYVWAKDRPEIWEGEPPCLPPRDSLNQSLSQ
- assay-method-text: ELISA, coated human CD19 exon 1-3-His
Your answer is read as OD450, so omit the unit and give the number.

Known OD450 at 0.0001 nM results, listed for orientation:
[[record]]
binder = "F3.121.4-L1H2 (antibody, mouse IgG1, kappa, V domains shown, humanized antibody of F3.121.4, VL1+VH2, murine IgG1 constant regions) VH: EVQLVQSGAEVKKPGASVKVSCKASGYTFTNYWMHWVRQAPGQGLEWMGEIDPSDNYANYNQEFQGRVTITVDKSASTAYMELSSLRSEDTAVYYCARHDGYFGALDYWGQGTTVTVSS VL: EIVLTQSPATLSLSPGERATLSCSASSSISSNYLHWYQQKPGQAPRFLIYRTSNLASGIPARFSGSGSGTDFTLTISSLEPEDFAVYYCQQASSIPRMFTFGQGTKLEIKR"
readout = "OD450 at 0.0001 nM"
reading_unit = "OD450"
recorded_measurement = 0.05

[[record]]
binder = "F3.121.4-L2H2 (antibody, mouse IgG1, kappa, V domains shown, humanized antibody of F3.121.4, VL2+VH2, murine IgG1 constant regions) VH: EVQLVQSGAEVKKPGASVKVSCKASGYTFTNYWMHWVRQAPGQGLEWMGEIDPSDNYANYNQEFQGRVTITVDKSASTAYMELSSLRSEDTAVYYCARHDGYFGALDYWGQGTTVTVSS VL: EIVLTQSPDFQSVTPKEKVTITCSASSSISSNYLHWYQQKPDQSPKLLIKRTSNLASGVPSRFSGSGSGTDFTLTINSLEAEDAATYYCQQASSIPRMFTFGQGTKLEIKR"
readout = "OD450 at 0.0001 nM"
reading_unit = "OD450"
recorded_measurement = 0.05


Problem: Data request, read-out OD450 at 0.0001 nM, for F3.121.4-L2H1 (antibody, mouse IgG1, kappa, V domains shown, humanized antibody of F3.121.4, VL2+VH1, murine IgG1 constant regions) VH: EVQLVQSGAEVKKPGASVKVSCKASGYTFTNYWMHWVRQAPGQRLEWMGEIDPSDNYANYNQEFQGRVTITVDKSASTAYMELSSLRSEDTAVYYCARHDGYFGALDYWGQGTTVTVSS VL: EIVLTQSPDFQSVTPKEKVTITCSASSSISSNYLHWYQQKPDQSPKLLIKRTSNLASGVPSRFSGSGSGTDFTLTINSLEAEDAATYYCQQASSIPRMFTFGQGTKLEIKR
Solution: 0.05
